Test system: SK-MEL-2 melanoma
Test: NCI tumour cell line growth inhibition, 48 h
Where a SMILES comes first, the peptide text is derived from it. The star is where a group is joined. Cbz = O=C(OCc1ccccc1)*; NHNH2 = NN*
Provide the reported TGI of each item.

Incoming: Which TGI is reported for this compound? COc1c(C)c2nc3ccccc3[nH]c2c2c(=O)ccnc12
Outgoing: > 100 µM

Incoming: Which TGI is reported for this compound? Cn1c(=O)c2[nH]c(SCc3ccccn3)nc2n(C)c1=S
Outgoing: > 100 µM

Incoming: Which TGI is reported for this compound? COc1cc(I)c2c3c1OC1C34CCN(C)C(C2)C4=CC(I)C1(OC)OC (stereo unspecified)
Outgoing: 32.9 µM

Incoming: Which TGI is reported for this compound? O=c1c2cc([N+](=O)[O-])ccc2sc2ccsc12
Outgoing: > 100 µM

Incoming: Which TGI is reported for this compound? COc1cc(C2=C(c3ccccc3)COC2=O)cc(OC)c1OC
Outgoing: > 100 µM

Incoming: Which TGI is reported for this compound? OCc1c[nH]c2ccccc12
Outgoing: 32.8 µM

Incoming: Which TGI is reported for this compound? CN1CCN(C)C12C=c1ccccc1=CC21CC1
Outgoing: 53.7 µM

Incoming: Which TGI is reported for this compound? CC[C@]1(O)C[C@@H]2CN(CCc3c([nH]c4ccccc34)[C@@](C(=O)OC)(c3cc4c(cc3OC)N(C)[C@H]3[C@@](O)(C(=O)OC)[C@H](OC(C)=O)[C@]5(CC)C=CCN6CC[C@]43[C@@H]65)C2)C1
Outgoing: 20.2 µM

Incoming: Which TGI is reported for this compound? COc1ccc2cc(NC(=O)N/N=C\c3ccc(Cl)cc3)ccc2c1
Outgoing: > 100 µM

Incoming: Which TGI is reported for this compound? NC(N)=Nc1ncccc1[N+](=O)[O-]
Outgoing: > 100 µM

Incoming: Which TGI is reported for this compound? COC12C=C(C)C(CC1)CC2C(=O)O (stereo unspecified)
Outgoing: > 100 µM

Incoming: Which TGI is reported for this compound? COC(=O)C1CC2(c3ccccc3)C(=O)c3ccccc3N2O1 (stereo unspecified)
Outgoing: > 100 µM

Incoming: Which TGI is reported for this compound? COc1cc2c(/C=C3/C(=O)Nc4ccccc43)c(Cl)[nH]c2cc1C
Outgoing: 25.4 µM

Incoming: Which TGI is reported for this compound? O=C1CCCCN1CCCCC#Cc1ccccc1C#Cc1ccc([N+](=O)[O-])cc1
Outgoing: 16.7 µM

Incoming: Which TGI is reported for this compound? C=C1C(=O)O[C@@]23C1CC[C@@H](C)C2CC[C@@]1(C)OC31 (stereo partly specified)
Outgoing: 23.9 µM

Incoming: Which TGI is reported for this compound? COC(=O)/C=C/c1cc(OC)c(OC)c(OC)c1
Outgoing: > 100 µM

Incoming: Which TGI is reported for this compound? O=[N+]([O-])c1ccc(-c2ccc(-c3csc(Nc4ccccn4)n3)o2)cc1
Outgoing: > 100 µM

Incoming: Which TGI is reported for this compound? CCCCN=C(NC#N)NCCCC
Outgoing: > 100 µM

Incoming: Which TGI is reported for this compound? N#Cc1cc([N+](=O)[O-])ccc1NC(=O)C(=O)Nc1n[nH]c(N)n1
Outgoing: > 100 µM

Incoming: Which TGI is reported for this compound? COC(=O)CC(NC(=O)OCc1ccccc1)C(=O)NC(CC(=O)OC)C(=O)NC(CC(=O)OC)C(=O)NC(CC(=O)OC)C(=O)NC(CC(=O)OC)C(=O)NC(CC(=O)OC)C(=O)NN (stereo unspecified) (Cbz-D(OMe)D(OMe)D(OMe)D(OMe)D(OMe)D(OMe)-NHNH2; configuration not given here)
Outgoing: > 100 µM

Incoming: Which TGI is reported for this compound? O=c1c(-c2ccc(Cl)cc2)nnc2n(Cc3ccccc3)c3ccccc3n12
Outgoing: > 100 µM

Incoming: Which TGI is reported for this compound? Cn1c2ccccc2n2c(=O)c3cc([N+](=O)[O-])ccc3c(C#N)c12
Outgoing: > 100 µM

Incoming: Which TGI is reported for this compound? COc1ccc(-c2cnnc3c(-c4cccc(C(F)(F)F)c4)cnn23)cc1
Outgoing: 79.8 µM

Incoming: Which TGI is reported for this compound? CSC(C1c2ccccc2N(c2ccc(C)cc2)C2=NC(=O)N(C)C(=O)C21Cl)S(=O)(=O)c1ccc(C)cc1 (stereo unspecified)
Outgoing: 38.9 µM

Incoming: Which TGI is reported for this compound? O=C(O)CNS(=O)(=O)c1ccc(NCc2ccccc2)cc1
Outgoing: > 100 µM

Incoming: Which TGI is reported for this compound? Cc1cn([C@@H]2C[C@H]2CO)c(=O)[nH]c1=O
Outgoing: > 100 µM

Incoming: Which TGI is reported for this compound? Nc1c(C(=O)c2ccc(Cl)cc2)[nH]c(NCc2ccccc2)c1C(=S)Nc1ccccc1
Outgoing: 3.58 µM

Incoming: Which TGI is reported for this compound? O=C(/C=C/c1c(O)ccc2ccccc12)c1cccc(O)c1
Outgoing: > 100 µM

Incoming: Which TGI is reported for this compound? C[C@]12CC[C@H]3[C@@H](CC=C4C[C@@H](O)CC[C@@]43C)[C@@H]1CC[C@@H]2N(CCO)CCO
Outgoing: > 100 µM

Incoming: Which TGI is reported for this compound? O/N=C/C1c2ccccc2-c2ccccc21
Outgoing: 36.1 µM

Incoming: Which TGI is reported for this compound? CC(=O)OCC(OC(C)=O)C1C[C@H]2O[C@@H]3[C@H](C[C@H]2O1)O[C@@]1(C[C@@H]3C)C[C@H](C)[C@@H]2O[C@]3(C[C@@H]2O1)C[C@H]1O[C@H]2[C@H](C)[C@H]4OC(=O)CC5CC[C@H]6OC7[C@H]8O[C@]9(CC[C@H]%10CC(O)(CO)[C@H](CC[C@H]%11C[C@@H](C)C(O)(CO)C(C[C@@H]4O[C@H]2C[C@H]1O3)O%11)O%10)CC8O[C@@H]7[C@@H](O9)[C@H]6O5 (stereo partly specified)
Outgoing: > 1 µM

Incoming: Which TGI is reported for this compound? CC1=NN(C(=O)Nc2ccccc2)C(=O)C2CCC(=O)N12 (stereo unspecified)
Outgoing: > 100 µM

Incoming: Which TGI is reported for this compound? COC(=O)c1c/c(=N\NC(=O)CC(=O)Nc2ccccc2OC)c2ccccc2o1
Outgoing: > 100 µM

Incoming: Which TGI is reported for this compound? CC(C)C(=O)NC(=S)Nc1ccc([N+](=O)[O-])cc1C#N
Outgoing: > 100 µM

Incoming: Which TGI is reported for this compound? CCNC(=O)C1CCCN1C(=O)C(CCCN=C(N)N)NC(=O)C(CC(C)C)NC(=O)C(Cc1c[nH]c2ccccc12)NC(=O)C(Cc1ccc(O)cc1)NC(=O)C(CO)NC(=O)C(Cc1c[nH]c2ccccc12)NC(=O)C(Cc1cnc[nH]1)NC(=O)C1CCC(=O)N1 (stereo unspecified)
Outgoing: > 100 µM

Incoming: Which TGI is reported for this compound? O=C(N/N=C/c1ccccc1O)c1ccccc1Nc1ccnc(C(F)(F)F)c1
Outgoing: > 60.5 µM

From: PubChem BioAssay (NCI)
